Target: PRC2 containing wt EZH2 (Homo sapiens (Human))
Sequence (Q15910 whole entry): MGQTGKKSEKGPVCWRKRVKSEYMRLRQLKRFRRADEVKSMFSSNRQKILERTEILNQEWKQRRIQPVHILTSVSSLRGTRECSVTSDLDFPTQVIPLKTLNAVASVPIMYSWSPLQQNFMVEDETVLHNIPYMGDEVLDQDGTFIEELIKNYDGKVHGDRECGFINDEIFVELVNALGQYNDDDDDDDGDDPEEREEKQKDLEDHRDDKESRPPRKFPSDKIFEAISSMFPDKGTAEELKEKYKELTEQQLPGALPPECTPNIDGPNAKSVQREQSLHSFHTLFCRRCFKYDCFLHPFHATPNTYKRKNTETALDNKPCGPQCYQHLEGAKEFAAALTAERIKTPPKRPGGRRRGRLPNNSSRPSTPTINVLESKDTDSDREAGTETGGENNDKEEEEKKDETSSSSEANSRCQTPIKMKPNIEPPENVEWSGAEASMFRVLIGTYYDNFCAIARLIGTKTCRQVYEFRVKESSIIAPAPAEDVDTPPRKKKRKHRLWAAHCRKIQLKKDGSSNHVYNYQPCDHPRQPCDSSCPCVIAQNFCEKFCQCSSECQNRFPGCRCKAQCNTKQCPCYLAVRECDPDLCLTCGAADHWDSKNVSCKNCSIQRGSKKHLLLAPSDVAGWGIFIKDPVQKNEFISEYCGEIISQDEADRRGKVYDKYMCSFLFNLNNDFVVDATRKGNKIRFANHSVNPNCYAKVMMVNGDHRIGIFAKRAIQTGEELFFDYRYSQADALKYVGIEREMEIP
Sequence (O75530 whole entry partner): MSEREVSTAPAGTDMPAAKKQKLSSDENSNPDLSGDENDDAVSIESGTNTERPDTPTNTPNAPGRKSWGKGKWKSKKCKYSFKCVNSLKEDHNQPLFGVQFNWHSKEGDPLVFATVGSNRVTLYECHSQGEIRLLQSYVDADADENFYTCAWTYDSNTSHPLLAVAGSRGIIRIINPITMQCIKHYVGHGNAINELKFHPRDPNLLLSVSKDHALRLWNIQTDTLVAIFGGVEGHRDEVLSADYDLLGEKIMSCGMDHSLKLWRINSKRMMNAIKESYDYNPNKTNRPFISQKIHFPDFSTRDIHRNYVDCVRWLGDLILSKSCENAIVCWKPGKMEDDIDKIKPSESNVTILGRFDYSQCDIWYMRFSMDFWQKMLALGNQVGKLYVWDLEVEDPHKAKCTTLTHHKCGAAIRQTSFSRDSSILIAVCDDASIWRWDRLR
Sequence (Q15022 whole entry partner): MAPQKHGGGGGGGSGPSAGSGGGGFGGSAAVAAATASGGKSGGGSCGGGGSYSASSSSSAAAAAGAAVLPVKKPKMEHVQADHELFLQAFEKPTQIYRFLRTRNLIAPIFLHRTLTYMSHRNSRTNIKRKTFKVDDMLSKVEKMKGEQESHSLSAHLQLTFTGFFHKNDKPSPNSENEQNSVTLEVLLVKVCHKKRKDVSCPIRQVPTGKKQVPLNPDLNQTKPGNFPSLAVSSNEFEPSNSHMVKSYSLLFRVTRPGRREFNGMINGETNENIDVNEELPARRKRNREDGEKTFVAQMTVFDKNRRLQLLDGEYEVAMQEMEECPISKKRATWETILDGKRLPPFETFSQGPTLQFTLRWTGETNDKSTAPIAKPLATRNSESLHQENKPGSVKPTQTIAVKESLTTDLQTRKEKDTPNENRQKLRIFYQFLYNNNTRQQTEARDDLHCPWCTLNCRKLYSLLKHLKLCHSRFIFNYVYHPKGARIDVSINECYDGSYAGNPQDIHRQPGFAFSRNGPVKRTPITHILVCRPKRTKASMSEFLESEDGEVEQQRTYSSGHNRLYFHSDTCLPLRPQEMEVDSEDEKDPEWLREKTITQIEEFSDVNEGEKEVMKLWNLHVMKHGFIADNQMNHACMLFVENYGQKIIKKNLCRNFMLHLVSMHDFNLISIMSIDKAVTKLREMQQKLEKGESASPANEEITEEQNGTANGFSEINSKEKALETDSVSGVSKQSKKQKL
Sequence (Q09028 whole entry partner): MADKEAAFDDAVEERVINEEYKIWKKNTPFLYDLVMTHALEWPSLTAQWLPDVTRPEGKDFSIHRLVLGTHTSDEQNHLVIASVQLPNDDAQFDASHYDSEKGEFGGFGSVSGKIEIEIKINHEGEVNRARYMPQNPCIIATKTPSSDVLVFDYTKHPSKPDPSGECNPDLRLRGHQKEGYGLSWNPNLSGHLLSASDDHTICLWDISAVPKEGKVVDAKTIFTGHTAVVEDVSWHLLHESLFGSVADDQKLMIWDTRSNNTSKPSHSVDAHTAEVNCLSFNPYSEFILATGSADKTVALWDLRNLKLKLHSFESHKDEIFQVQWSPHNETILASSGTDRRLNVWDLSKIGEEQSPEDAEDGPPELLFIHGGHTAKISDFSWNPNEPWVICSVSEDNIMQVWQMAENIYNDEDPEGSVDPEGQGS
Sequence (Q6ZN18 whole entry partner): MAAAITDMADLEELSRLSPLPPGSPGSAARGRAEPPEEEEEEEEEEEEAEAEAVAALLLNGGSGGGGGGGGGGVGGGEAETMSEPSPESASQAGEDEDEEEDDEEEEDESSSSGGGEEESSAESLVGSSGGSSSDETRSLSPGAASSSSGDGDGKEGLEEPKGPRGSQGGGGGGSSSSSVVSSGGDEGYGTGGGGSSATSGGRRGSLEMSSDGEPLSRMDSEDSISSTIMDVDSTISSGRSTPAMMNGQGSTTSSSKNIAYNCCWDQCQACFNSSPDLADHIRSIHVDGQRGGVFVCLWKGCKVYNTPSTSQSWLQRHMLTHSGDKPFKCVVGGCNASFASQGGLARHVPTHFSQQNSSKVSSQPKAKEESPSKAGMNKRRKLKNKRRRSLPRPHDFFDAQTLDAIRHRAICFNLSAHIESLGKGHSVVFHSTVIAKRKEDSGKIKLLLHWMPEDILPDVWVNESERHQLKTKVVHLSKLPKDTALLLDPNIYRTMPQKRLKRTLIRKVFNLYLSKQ
Test: EZH2 biochemical assay (IC50), 3H-SAM incorporation into biotinylated H3 peptide
Details: 30 pM PRC2 containing wt EZH2; 3-5 h pre-incubation; read-out: EZH2 (IC50)
readoutLabel: IC50

{"compound": "CSc1cc(C)[nH]c(=O)c1CNC(=O)c1c(C)n([C@H](C)C2OCC(N(C)C)CO2)c2ccccc12 (single isomer, unassigned) [7 (isomer 1)]", "result": "0.5 to 5 nM"}
{"compound": "CSc1cc(C)[nH]c(=O)c1CNC(=O)c1c(C)n([C@H](C)C2OCC(NC(C)(C)C)CO2)c2ccccc12 (single isomer, unassigned) [5 (isomer 1)]", "result": "0.5 to 5 nM"}
{"compound": "CSc1cc(C)[nH]c(=O)c1CNC(=O)c1c(C)n([C@H](C)C2CCC(Oc3cnn(C)c3)CC2)c2ncccc12 (single isomer, unassigned) [147 (isomer 1)]", "result": "< 0.5 nM"}

(Q) Provide only the value of recorded IC50 for CSc1cc(C)[nH]c(=O)c1CNC(=O)c1c(C)n([C@@H](C)[C@H]2OC[C@@H](N3CCC34COC4)CO2)c2ccccc12 (single isomer, unassigned; isomer 1) [151 (isomer 1)]
(A) 0.5 to 5 nM
